Test system: L1210 leukemia ip in BDF1 mice, survival T/C
Assay: NCI In Vivo Anticancer Drug Screen. Data for tumor model L1210 Leukemia (intraperitoneal) in B6D2F1 (BDF1) mice
Settings: endpoint: mean survival time; dose: 50.0 mg/kg/injection; schedule: Q01DX001 (ip); vehicle: carboxymethylcellulose (CMC); higher = longer survival
Toxic doses and inconclusive results are not listed.

Molecule | T/C
Fc1ccc(NC(=S)Nc2cc(Cl)cc(Cl)c2)cc1 | 98 % of control
COc1ccc(OC)c2c(OC(C)=O)c3ccccc3c(OC(C)=O)c12 | 98 % of control
CC(Nc1nc(SCc2ccccc2)c2ncn(C3OC(CO)C(O)C3O)c2n1)C(=O)O (stereo unspecified) | 107 % of control
O=C(C(=O)c1ccc(Cl)cc1)c1ccc(Cl)cc1 | 94 % of control
O=C1c2ccccc2-c2cc(F)cc(F)c21 | 104 % of control
Cc1ccc(/C=C/c2ccccn2)cc1 | 100 % of control
CCOc1ccccc1/C=N\NC(=S)Nc1ccc2cn[nH]c2c1 | 96 % of control
Nc1c([N+](=O)[O-])cc([N+](=O)[O-])c2ccccc12 | 104 % of control
Cn1c(=O)c2[nH]c(CCCc3nc4c([nH]3)c(=O)n(C)c(=O)n4C)nc2n(C)c1=O | 105 % of control
NC(CSC(c1ccccc1)c1ccccc1)C(=O)O (stereo unspecified) | 98 % of control
COc1ccc(/C=N/Nc2nnc(N/N=C/c3ccc(OC)c(O)c3)c3ccccc23)cc1O | 103 % of control
CC(=S)SCC(C)C | 101 % of control
CC(C)(C)C1CCC2(CC1)CCN(N1CCCCCC1)CC2 | 101 % of control
CCCCO[Si](C)(C)CCl | 101 % of control
CC[N+](CC)(CC)CC(=O)NCc1ccco1 | 105 % of control
NC1=NC(c2ccccc2)C2=C(N1)C(=O)N(Cc1ccccc1)C2 (stereo unspecified) | 98 % of control
